In this section we review reported log10(IC50) values for a set of compounds.
# test_protocol: Inhibition of lipid peroxidation in Sprague-Dawley rat heart mitochondria assessed as inhibition of FeSO4-induced malondialdehyde formation
# Type: functional
Log scale reminder: IC50 in µM, then log10 taken.

Supply measured log10(IC50) of Cc1cc(O)c2c(c1)C(=O)c1cc(O)cc(O)c1C2=O in your reply.
1.23

Input Cc1c(C)c2c(c(C)c1O)CC[C@@](C)(CCC[C@H](C)CCC[C@H](C)CCCC(C)C)O2 , output reported log10(IC50).
1.98

Let me know recorded log10(IC50) for O=C(O[C@@H]1Cc2c(O)cc(O)cc2O[C@@H]1c1ccc(O)c(O)c1)c1cc(O)c(O)c(O)c1 [EPICATECHIN GALLATE] , thanks.
0.73

Could you please provide reported log10(IC50) for O=C1OC[C@H]2OC(O)[C@@H]3OC(=O)c4cc(O)c(O)c(O)c4-c4c(cc(O)c(O)c4O)C(=O)O[C@H]3[C@@H]2OC(=O)c2cc(O)c(O)c(O)c2-c2c1cc(O)c(O)c2O (stereo partly drawn) ? Thanks!
1.08

###

# test_protocol: Inhibition of lipid peroxidation in Sprague-Dawley rat heart mitochondria assessed as inhibition of FeSO4-induced malondialdehyde formation
# Format: functional
Collected pIC50 values appear next to each entry.
Notebook: values listed as pIC50 are -log10 of the concentration (mol/L).

Solved cases (3 shown):
• Oc1cc(O)c2c(c1)O[C@H](c1ccc(O)c(O)c1)[C@H](O)[C@H]2c1c(O)cc(O)c2c1O[C@H](c1ccc(O)c(O)c1)[C@H](O)C2 = 5.05
• O=C(O[C@@H]1Cc2c(O)cc(O)cc2O[C@@H]1c1cc(O)c(O)c(O)c1)c1cc(O)c(O)c(O)c1 [EPIGALOCATECHIN GALLATE] = 5.03
• O=C(O[C@@H]1Cc2c(O)cc(O)cc2O[C@H]1c1cc(O)c(O)c(O)c1)c1cc(O)c(O)c(O)c1 [GALLOCATECHIN GALLATE] = 5.07

Please find the next compound below.
Return pIC50 for the following compound: O=C1c2ccccc2C(=O)c2c1ccc(O)c2O
4.31
